For each record, write down the corresponding λem max.
# ASSAY_PROTOCOL: Absorption and emission spectra of AP site binding probes in ethanol
# Format: physicochemical
# Method: NMR spectra were recorded on a Varian Mercury 300 MHz, a Varian Inova 400, and a Varian Inova 600 MHz spectrometer at room temperature, except where otherwise noted. […] Low resolution mass spectra were recorded on a ThermoScientific LCQ Advantage or a Finnigan LCQ Deca mass spectrometer. Fluorescence data were collected on a Varian Cary Eclipse fluorescence spectrophotometer in a quartz cuvette with a 1 cm pathlength or on a Tecan Infinite M200 scanner. […]
Give bare numbers, in nm.

1. CN(C)c1cccc2c(S(=O)(=O)NOCCCON)cccc12 [DansylMX] = 540
2. CCCN1/C(=C/C=C(/C=C/C2=[N+](CCC)c3ccccc3C2(C)C)c2ccc(C(=O)NCCCON)cn2)C(C)(C)c2ccccc21 [Cy5MX, 2,2,2-trifluoroacetate] = 660
3. NOCCCOc1ccc2cc(-c3ccc([N+](=O)[O-])cc3)c(=O)oc2c1 [NpCMX] = 550
4. NOCCCOc1ccc2cc(-c3ccc(N)cc3)c(=O)oc2c1 [ACMX] = 450
5. Cc1cc(=O)oc2cc(OCCCON)ccc12 [MCMX] = 375

Now let's try a different one.
[in] Quick one: λem max of CCCN1/C(=C/C=C2\CCCC(/C=C/C3=[N+](CCC)c4ccccc4C3(C)C)=C2Oc2ccc(CC(=O)NCCCON)cc2)C(C)(C)c2ccccc21 [Cy7MX, 2,2,2-trifluoroacetate] ?
[out] 796
